Reference source: paper PMC4687966

biological target: Mtb BioA (Mycobacterium tuberculosis); assay type: binding; details: LE = (−ΔG)/N, N = number of non-hydrogen atoms
Sequence (P9WQ81 whole entry): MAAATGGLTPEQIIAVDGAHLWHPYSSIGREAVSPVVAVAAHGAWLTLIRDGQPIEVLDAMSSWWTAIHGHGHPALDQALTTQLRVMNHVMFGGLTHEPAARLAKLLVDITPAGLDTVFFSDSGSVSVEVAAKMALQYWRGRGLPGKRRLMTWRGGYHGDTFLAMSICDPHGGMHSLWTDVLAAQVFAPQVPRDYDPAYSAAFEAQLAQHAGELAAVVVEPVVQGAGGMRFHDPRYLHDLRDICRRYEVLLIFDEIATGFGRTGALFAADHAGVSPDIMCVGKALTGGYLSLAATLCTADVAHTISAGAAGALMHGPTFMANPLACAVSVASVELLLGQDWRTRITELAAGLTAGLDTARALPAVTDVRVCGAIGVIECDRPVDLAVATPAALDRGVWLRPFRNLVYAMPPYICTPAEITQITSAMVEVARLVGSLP
# LE (ligand efficiency) values compiled below
Reply with just the number.

Exercise: Recall and state the measured LE (ligand efficiency) for NC(=O)c1ccc(-n2ccnc2)cc1 [F3] .
Solution: 0.47

Exercise: Answer with reported LE (ligand efficiency) of NC(=O)c1ccc(-c2ccccn2)s1 [F2]
Solution: 0.50

Exercise: Supply LE (ligand efficiency) value. Item: O=C(c1ccccc1)C1CCNCC1 [F7]
Solution: 0.43

====

target: UniProtKB P9WQ81; format: binding; conditions: ITC, 25 °C; ΔG = −RT ln KA
Documented ΔG across a set of compounds
Units required after the number.

Solved entries:
Exercise: Answer with the recorded ΔG of NCc1nc2ccccc2s1 only.
Solution: -6.1 ± 0.1 kcal/mol

Exercise: Provide ΔG value for the following compound: CC(=O)Nc1ccc2c(c1)C=CC2=O
Solution: -6.3 ± 0.0 kcal/mol

Exercise: Please indicate ΔG recorded for O=C(c1ccccc1)C1CCNCC1
Solution: -6.0 ± 0.1 kcal/mol

Exercise: Please report ΔG for the following compound: NC(=O)c1ccc(-n2ccnc2)cc1
Solution: -6.6 ± 0.1 kcal/mol

Exercise: Assign ΔG to the following record: NCc1ccc(Cn2cc(Cl)cn2)cc1
Solution: -7.0 ± 0.1 kcal/mol

Next:
Exercise: Tell me ΔG reported for NC(=O)c1ccc(-c2ccccn2)s1
Solution: -7.0 ± 0.1 kcal/mol

Exercise: Give the measured ΔG for CNCc1ccc(Cn2cccn2)cc1
Solution: -6.7 ± 0.0 kcal/mol
